tested on: mice bearing LNCaP tumor xenografts; test: PET/CT imaging of 68Ga-labeled compounds; assay type: in vivo; conditions: PET/CT images, compounds of FIG. 13
Readout Name: tumor uptake (qualitative comparison)

1) CCCCCCC(NC(=O)C1CCC(CNC(=O)CN2CCN(CC(=O)[O-])CCN(CC(=O)[O-])CCN(CC(=O)[O-])CC2)CC1)C(=O)NCCCCC(NC(=O)NC(CCC(=O)O)C(=O)O)C(=O)O.[68Ga+3] (stereo not shown) [^68Ga-HTK03026]; comparable
2) O=C([O-])CN1CCN(CC(=O)[O-])CCN(CC(=O)NCC2CCC(C(=O)NC(Cc3ccc4ccc5cccc6ccc3c4c56)C(=O)NCCCCC(NC(=O)NC(CCC(=O)O)C(=O)O)C(=O)O)CC2)CCN(CC(=O)[O-])CC1.[68Ga+3] (stereo not shown) [^68Ga-HTK03029]; comparable
3) O=C([O-])CN1CCN(CC(=O)[O-])CCN(CC(=O)NCC2CCC(C(=O)NC(Cc3ccc4cc5ccccc5cc4c3)C(=O)NCCCCC(NC(=O)NC(CCC(=O)O)C(=O)O)C(=O)O)CC2)CCN(CC(=O)[O-])CC1.[68Ga+3] (stereo not shown) [^68Ga-HTK03027]; comparable

----------
Entries and their Thyroid uptake
system: mice bearing PSMA-expressing LNCAP cancer xenografts; experiment: Biodistribution of 68Ga-labeled compounds; type: in vivo; conditions: 1 h post-injection
Readout Name: Thyroid uptake (% ID/g)

1) O=C([O-])CN1CCN(CC(=O)[O-])CCN(CC(=O)NCCCC[C@H](NC(=O)CNC(=O)CCCc2ccc(F)cc2)C(=O)NC[C@H]2CC[C@H](C(=O)N[C@@H](Cc3ccc4ccccc4c3)C(=O)NCCCC[C@H](NC(=O)N[C@@H](CCC(=O)O)C(=O)O)C(=O)O)CC2)CCN(CC(=O)[O-])CC1.[68Ga+3] [^68Ga-HTK03085]; 1.70
2) O=C([O-])CN1CCN(CC(=O)[O-])CCN(CC(=O)NCC2CCC(C(=O)NC(Cc3c4ccccc4cc4ccccc34)C(=O)NCCCCC(NC(=O)NC(CCC(=O)O)C(=O)O)C(=O)O)CC2)CCN(CC(=O)[O-])CC1.[68Ga+3] (stereo not shown) [^68Ga-HTK03041]; 2.48
3) O=C([O-])CN1CCN(CC(=O)[O-])CCN(CC(=O)NCCCC[C@H](NC(=O)CNC(=O)CCCc2ccc(Cl)cc2)C(=O)NC[C@H]2CC[C@H](C(=O)N[C@@H](Cc3ccc4ccccc4c3)C(=O)NCCCC[C@H](NC(=O)N[C@@H](CCC(=O)O)C(=O)O)C(=O)O)CC2)CCN(CC(=O)[O-])CC1.[68Ga+3] [^68Ga-HTK03055]; 4.20
4) CCCCCCC(NC(=O)C1CCC(CNC(=O)CN2CCN(CC(=O)[O-])CCN(CC(=O)[O-])CCN(CC(=O)[O-])CC2)CC1)C(=O)NCCCCC(NC(=O)NC(CCC(=O)O)C(=O)O)C(=O)O.[68Ga+3] (stereo not shown) [^68Ga-HTK03026]; 0.35

----------
system: mice bearing PSMA-expressing LNCAP cancer xenografts; assay: Biodistribution of 68Ga-labeled compounds; format: in vivo; details: 3 h post-injection
Spleen uptake below 2 % ID/g gives 0; Spleen uptake at or above it gives 1.

1) O=C([O-])CN1CCN(CC(=O)[O-])CCN(CC(=O)NCCCC[C@H](NC(=O)CNC(=O)CCCc2ccccc2)C(=O)NC[C@H]2CC[C@H](C(=O)N[C@@H](Cc3ccc4ccccc4c3)C(=O)NCCCC[C@H](NC(=O)N[C@@H](CCC(=O)O)C(=O)O)C(=O)O)CC2)CCN(CC(=O)[O-])CC1.[68Ga+3] [^68Ga-HTK03056]; 1
2) O=C([O-])CN1CCN(CC(=O)[O-])CCN(CC(=O)NCCCC[C@H](NC(=O)CNC(=O)CCCc2ccc(I)cc2)C(=O)NC[C@H]2CC[C@H](C(=O)N[C@@H](Cc3ccc4ccccc4c3)C(=O)NCCCC[C@H](NC(=O)N[C@@H](CCC(=O)O)C(=O)O)C(=O)O)CC2)CCN(CC(=O)[O-])CC1.[68Ga+3] [^68Ga-HTK03024]; 1
3) Cc1ccc(CCCC(=O)NCC(=O)N[C@@H](CCCCNC(=O)CN2CCN(CC(=O)[O-])CCN(CC(=O)[O-])CCN(CC(=O)[O-])CC2)C(=O)NC[C@H]2CC[C@H](C(=O)N[C@@H](Cc3ccc4ccccc4c3)C(=O)NCCCC[C@H](NC(=O)N[C@@H](CCC(=O)O)C(=O)O)C(=O)O)CC2)cc1.[68Ga+3] [^68Ga-HTK03090]; 0
4) O=C([O-])CN1CCN(CC(=O)[O-])CCN(CC(=O)NCCCC[C@H](NC(=O)CNC(=O)CCCc2ccc(F)cc2)C(=O)NC[C@H]2CC[C@H](C(=O)N[C@@H](Cc3ccc4ccccc4c3)C(=O)NCCCC[C@H](NC(=O)N[C@@H](CCC(=O)O)C(=O)O)C(=O)O)CC2)CCN(CC(=O)[O-])CC1.[68Ga+3] [^68Ga-HTK03085]; 0
5) COc1ccc(CCCC(=O)NCC(=O)N[C@@H](CCCCNC(=O)CN2CCN(CC(=O)[O-])CCN(CC(=O)[O-])CCN(CC(=O)[O-])CC2)C(=O)NC[C@H]2CC[C@H](C(=O)N[C@@H](Cc3ccc4ccccc4c3)C(=O)NCCCC[C@H](NC(=O)N[C@@H](CCC(=O)O)C(=O)O)C(=O)O)CC2)cc1.[68Ga+3] [^68Ga-HTK03086]; 0
6) O=C([O-])CN1CCN(CC(=O)[O-])CCN(CC(=O)NCCCC[C@H](NC(=O)CNC(=O)CCCc2ccc([N+](=O)[O-])cc2)C(=O)NC[C@H]2CC[C@H](C(=O)N[C@@H](Cc3ccc4ccccc4c3)C(=O)NCCCC[C@H](NC(=O)N[C@@H](CCC(=O)O)C(=O)O)C(=O)O)CC2)CCN(CC(=O)[O-])CC1.[68Ga+3] [^68Ga-HTK03089]; 1

----------
tested on: mice bearing PSMA-expressing LNCAP cancer xenografts; experiment: Biodistribution of 68Ga-labeled compounds; assay type: in vivo; conditions: 1 h post-injection
Readout Name: Adrenal glands uptake

1) O=C([O-])CN1CCN(CC(=O)[O-])CCN(CC(=O)NCCCC[C@H](NC(=O)CNC(=O)CCCc2ccc(Cl)cc2)C(=O)NC[C@H]2CC[C@H](C(=O)N[C@@H](Cc3ccc4ccccc4c3)C(=O)NCCCC[C@H](NC(=O)N[C@@H](CCC(=O)O)C(=O)O)C(=O)O)CC2)CCN(CC(=O)[O-])CC1.[68Ga+3] [^68Ga-HTK03055]; 5.51 ± 1.56 % ID/g
2) O=C([O-])CN1CCN(CC(=O)[O-])CCN(CC(=O)NCCCC[C@H](NC(=O)CNC(=O)CCCc2ccc(F)cc2)C(=O)NC[C@H]2CC[C@H](C(=O)N[C@@H](Cc3ccc4ccccc4c3)C(=O)NCCCC[C@H](NC(=O)N[C@@H](CCC(=O)O)C(=O)O)C(=O)O)CC2)CCN(CC(=O)[O-])CC1.[68Ga+3] [^68Ga-HTK03085]; 3.57 ± 1.09 % ID/g
3) COc1ccc(CCCC(=O)NCC(=O)N[C@@H](CCCCNC(=O)CN2CCN(CC(=O)[O-])CCN(CC(=O)[O-])CCN(CC(=O)[O-])CC2)C(=O)NC[C@H]2CC[C@H](C(=O)N[C@@H](Cc3ccc4ccccc4c3)C(=O)NCCCC[C@H](NC(=O)N[C@@H](CCC(=O)O)C(=O)O)C(=O)O)CC2)cc1.[68Ga+3] [^68Ga-HTK03086]; 3.28 ± 0.54 % ID/g
4) CCCCCCC(NC(=O)C1CCC(CNC(=O)CN2CCN(CC(=O)[O-])CCN(CC(=O)[O-])CCN(CC(=O)[O-])CC2)CC1)C(=O)NCCCCC(NC(=O)NC(CCC(=O)O)C(=O)O)C(=O)O.[68Ga+3] (centres unmarked) [^68Ga-HTK03026]; 1.84 ± 0.95 % ID/g
5) O=C([O-])CN1CCN(CC(=O)[O-])CCN(CC(=O)NCCCC[C@H](NC(=O)CNC(=O)CCc2ccccc2)C(=O)NC[C@H]2CC[C@H](C(=O)N[C@@H](Cc3ccc4ccccc4c3)C(=O)NCCCC[C@H](NC(=O)N[C@@H](CCC(=O)O)C(=O)O)C(=O)O)CC2)CCN(CC(=O)[O-])CC1.[68Ga+3] [^68Ga-HTK03082]; 2.19 ± 0.76 % ID/g
6) Cc1ccc(CCCC(=O)NCC(=O)N[C@@H](CCCCNC(=O)CN2CCN(CC(=O)[O-])CCN(CC(=O)[O-])CCN(CC(=O)[O-])CC2)C(=O)NC[C@H]2CC[C@H](C(=O)N[C@@H](Cc3ccc4ccccc4c3)C(=O)NCCCC[C@H](NC(=O)N[C@@H](CCC(=O)O)C(=O)O)C(=O)O)CC2)cc1.[68Ga+3] [^68Ga-HTK03090]; 3.99 ± 1.94 % ID/g
7) O=C([O-])CN1CCN(CC(=O)[O-])CCN(CC(=O)NCCCC[C@H](NC(=O)CNC(=O)CCCc2ccc(Br)cc2)C(=O)NC[C@H]2CC[C@H](C(=O)N[C@@H](Cc3ccc4ccccc4c3)C(=O)NCCCC[C@H](NC(=O)N[C@@H](CCC(=O)O)C(=O)O)C(=O)O)CC2)CCN(CC(=O)[O-])CC1.[68Ga+3] [^68Ga-HTK03058]; 4.20 ± 1.21 % ID/g
8) Nc1ccc(CCCC(=O)NCC(=O)N[C@@H](CCCCNC(=O)CN2CCN(CC(=O)[O-])CCN(CC(=O)[O-])CCN(CC(=O)[O-])CC2)C(=O)NC[C@H]2CC[C@H](C(=O)N[C@@H](Cc3ccc4ccccc4c3)C(=O)NCCCC[C@H](NC(=O)N[C@@H](CCC(=O)O)C(=O)O)C(=O)O)CC2)cc1.[68Ga+3] [^68Ga-HTK03087]; 2.95 ± 0.92 % ID/g
9) O=C([O-])CN1CCN(CC(=O)[O-])CCN(CC(=O)NCC2CCC(C(=O)NC(Cc3ccc4cc5ccccc5cc4c3)C(=O)NCCCCC(NC(=O)NC(CCC(=O)O)C(=O)O)C(=O)O)CC2)CCN(CC(=O)[O-])CC1.[68Ga+3] (centres unmarked) [^68Ga-HTK03027]; 3.55 ± 2.33 % ID/g
10) O=C([O-])CN1CCN(CC(=O)[O-])CCN(CC(=O)NCC2CCC(C(=O)NC(Cc3c4ccccc4cc4ccccc34)C(=O)NCCCCC(NC(=O)NC(CCC(=O)O)C(=O)O)C(=O)O)CC2)CCN(CC(=O)[O-])CC1.[68Ga+3] (centres unmarked) [^68Ga-HTK03041]; 8.90 ± 2.56 % ID/g
11) O=C([O-])CN1CCN(CC(=O)[O-])CCN(CC(=O)NCCCC[C@H](NC(=O)CNC(=O)CCCc2ccc([N+](=O)[O-])cc2)C(=O)NC[C@H]2CC[C@H](C(=O)N[C@@H](Cc3ccc4ccccc4c3)C(=O)NCCCC[C@H](NC(=O)N[C@@H](CCC(=O)O)C(=O)O)C(=O)O)CC2)CCN(CC(=O)[O-])CC1.[68Ga+3] [^68Ga-HTK03089]; 4.57 ± 1.06 % ID/g
12) O=C([O-])CN1CCN(CC(=O)[O-])CCN(CC(=O)NCCCC[C@H](NC(=O)CNC(=O)CCCc2ccc(I)cc2)C(=O)NC[C@H]2CC[C@H](C(=O)N[C@@H](Cc3ccc4ccccc4c3)C(=O)NCCCC[C@H](NC(=O)N[C@@H](CCC(=O)O)C(=O)O)C(=O)O)CC2)CCN(CC(=O)[O-])CC1.[68Ga+3] [^68Ga-HTK03024]; 4.32 ± 0.25 % ID/g
13) O=C([O-])CN1CCN(CC(=O)[O-])CCN(CC(=O)NCCCC[C@H](NC(=O)CNC(=O)CCCc2ccccc2)C(=O)NC[C@H]2CC[C@H](C(=O)N[C@@H](Cc3ccc4ccccc4c3)C(=O)NCCCC[C@H](NC(=O)N[C@@H](CCC(=O)O)C(=O)O)C(=O)O)CC2)CCN(CC(=O)[O-])CC1.[68Ga+3] [^68Ga-HTK03056]; 3.78 ± 0.46 % ID/g
14) O=C([O-])CN1CCN(CC(=O)[O-])CCN(CC(=O)NCC2CCC(C(=O)NC(Cc3ccc4ccc5cccc6ccc3c4c56)C(=O)NCCCCC(NC(=O)NC(CCC(=O)O)C(=O)O)C(=O)O)CC2)CCN(CC(=O)[O-])CC1.[68Ga+3] (centres unmarked) [^68Ga-HTK03029]; 4.91 ± 1.57 % ID/g

FYI, the data here is from patent US20200339625A1.
